For each entry below, report its kon value.
target: T1, HSP70 (human HSP70; the antigen of the binning, humanization and variant binding assays) (human, UniProt P0DMV8 1-641, limits assumed); test: BLI, anti-human Fc capture, antigen dilution series, 1:1 fit
T1 construct: also called hu HSP70
T1 sequence (P0DMV8 whole entry, change not shown): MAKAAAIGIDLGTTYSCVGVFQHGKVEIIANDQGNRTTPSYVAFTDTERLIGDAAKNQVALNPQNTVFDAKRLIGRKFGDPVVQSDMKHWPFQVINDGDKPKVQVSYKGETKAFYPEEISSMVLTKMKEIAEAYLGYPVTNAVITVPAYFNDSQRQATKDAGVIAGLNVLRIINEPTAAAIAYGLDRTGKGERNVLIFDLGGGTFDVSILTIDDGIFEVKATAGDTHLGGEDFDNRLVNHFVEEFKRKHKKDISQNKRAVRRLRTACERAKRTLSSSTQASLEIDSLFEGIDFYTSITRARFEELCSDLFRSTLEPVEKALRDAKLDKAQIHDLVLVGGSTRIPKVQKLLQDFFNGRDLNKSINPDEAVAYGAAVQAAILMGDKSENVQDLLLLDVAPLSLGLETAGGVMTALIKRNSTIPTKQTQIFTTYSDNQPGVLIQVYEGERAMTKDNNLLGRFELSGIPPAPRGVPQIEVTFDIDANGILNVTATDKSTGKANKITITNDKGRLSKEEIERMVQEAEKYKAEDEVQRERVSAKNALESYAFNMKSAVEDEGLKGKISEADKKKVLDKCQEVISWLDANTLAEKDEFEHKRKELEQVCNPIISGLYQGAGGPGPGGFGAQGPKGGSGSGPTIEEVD
Hi! Could you send only the number? It should be in M⁻¹ s⁻¹, unit omitted.

Input line: If you can, please state the reported kon value of h77A-1.46 (antibody, V domains shown, captured by anti-human Fc) VH: QIQLVQSGVEVKKPGASVKVSCKASGYTFTNYGMNWVRQAPGQGLEWMGWINTYTGEPTYADDFKGRFTFTTDTSTSTAYMELRSLRSDDTAVYFCARYDHAMDYWGQGTLVTVSS VL: EIVLTQSPDSLAVSLGERATIKCKSSQSLLNSGTRKNYLAWYQKKAGQSPKLLIYWTSTRESGVPDRFSGSGSGTDFTLTIDSLQAEDVAVYYCKQSYTLYTFGGGTKVEIK .
Output line: 54800

Input line: If you can, please state the reported kon value of h77A-1.14 (antibody, V domains shown, captured by anti-human Fc) VH: QIQLVQSGAEVKKPGASVKVSCKASGYTFTNYGMNWVRQAPGQGLEWMGWINTYTGEPTYTDDFKGRFTFTTDTSTSTAYMELRSLRSDDTAVYFCARYDHAMDYWGQGTLVTVSS VL: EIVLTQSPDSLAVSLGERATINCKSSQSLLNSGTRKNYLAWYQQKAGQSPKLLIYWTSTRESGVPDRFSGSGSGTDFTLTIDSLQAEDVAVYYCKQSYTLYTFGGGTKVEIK .
Output line: 63100

Input line: If you can, please state the reported kon value of h77A-1.74 (antibody, V domains shown, captured by anti-human Fc) VH: QIQLVQSGPEVKKPGASVKVSCKASGYTFTNYGMNWVRQAPGQGLEWMGWINTYTGEPTYADDFKGRFTFTTDTSTTTGYMELRSLRSDDTAVYFCARYDHAMDYWGQGTLVTVSS VL: EIVLTQSPDSLAVSLGERATIKCKSSQSLLNSGTRKNYLAWYQQKAGQSPKLLIYWTSTRESGVPDRFSGSGSGTDFTLTIDSLQAEDVAIYYCKQSYTLYTFGGGTKVEIK .
Output line: 77800

All figures here come from patent US20250084155A1.
